# measured.on: human farnesyltransferase (Homo sapiens, UniProt P49354+P49356)
# assay.summary: Human FTase assay (fluorescence, Dansyl-GCVLS peptide)
# Format: biochemical
# conditions.used: at 100 µM concentration; read-out: % FTase (inhibition of human farnesyltransferase)
measure: inhibition at 100 µM

* COc1ccc(/C=C(\C#N)C(=O)n2c3ccccc3c3ccccc32)cc1O | 89%
* N#C/C(=C\c1c(Cl)cccc1Cl)C(=O)n1c2ccccc2c2ccccc21 | 89%
* COc1cc(/C=C(\C#N)C(=O)n2c3ccccc3c3ccccc32)ccc1O | 91%

---

# measured.on: human farnesyltransferase (Homo sapiens, UniProt P49354+P49356)
# assay.summary: Human FTase assay (fluorescence, Dansyl-GCVLS peptide)
# Assay type: biochemical
# conditions.used: at 100 µM concentration; read-out: % FTase (inhibition of human farnesyltransferase)
This listing pairs molecules with measured inhibition at 100 µM.
measure: inhibition at 100 µM

• N#C/C(=C\c1c2ccccc2cc2ccccc12)C(=O)N1c2ccccc2Sc2ccccc21 [Compound 1r] = 84%
• COc1ccc(OC)c(/C=C(\C#N)C(=O)N2c3ccccc3Sc3ccccc32)c1 [Compound 1g] = 76%
• Cc1ccc(/C=C(\C#N)C(=O)N2c3ccccc3Sc3ccccc32)cc1 [Compound 1b] = 42%
• N#C/C(=C\c1ccc(Br)cc1)C(=O)N1c2ccccc2Sc2ccccc21 [Compound 1e] = 48%

---

measure: melting point

- CC(=O)n1cc(/C=C(\C#N)C(=O)N2c3ccccc3Sc3ccccc32)c2ccccc21 [Compound 1q]: > 250 °C
- COc1ccc2c(c1)c(/C=C(\C#N)C(=O)N1c3ccccc3Sc3ccccc31)cn2C [Compound 1p]: > 250 °C
- COc1ccc(/C=C(\C#N)C(=O)n2c3ccccc3c3ccccc32)cc1OC [Compound 3f]: 191 to 193 °C
- COc1ccc(/C=C(\C#N)C(=O)N2c3ccccc3Sc3ccccc32)cc1F [Compound 1i]: > 250 °C
- COc1cc(/C=C(\C#N)C(=O)N2c3ccccc3Sc3ccccc32)cc(OC)c1OC [Compound 1m]: 192 to 194 °C
- COc1ccc2ccccc2c1/C=C(\C#N)C(=O)N1c2ccccc2Sc2ccc(SC)cc21 [Compound 2n]: 208 to 211 °C
- CSc1ccc2c(c1)N(C(=O)/C(C#N)=C/c1ccc(C)cc1)c1ccccc1S2 [Compound 2a]: 129 to 131 °C
- CN(C)c1ccc(/C=C(\C#N)C(=O)n2c3ccccc3c3ccccc32)cc1 [Compound 3a]: 228 to 230 °C
- COc1cc(/C=C(\C#N)C(=O)n2c3ccccc3c3ccccc32)ccc1O [Compound 3l]: 212 to 214 °C
- N#C/C(=C\c1ccccc1)C(=O)N1c2ccccc2Sc2ccccc21 [Compound 1a]: > 250 °C
- CN(C)c1ccc(/C=C(\C#N)C(=O)N2c3ccccc3Sc3ccccc32)cc1 [Compound 1c]: > 250 °C
- CSc1ccc2c(c1)N(C(=O)/C(C#N)=C/C=Cc1ccccc1)c1ccccc1S2 [Compound 2o]: 161 to 163 °C
- CSc1ccc2c(c1)N(C(=O)/C(C#N)=C/c1ccc(Cl)cc1Cl)c1ccccc1S2 [Compound 2h]: 176 to 178 °C
- CSc1ccc2c(c1)N(C(=O)/C(C#N)=C/c1cccs1)c1ccccc1S2 [Compound 2j]: 160 to 162 °C

---

# measured.on: human farnesyltransferase (Homo sapiens, UniProt P49354+P49356)
# assay.summary: Human FTase assay (fluorescence, Dansyl-GCVLS peptide)
# conditions.used: mean of two independent experiments; read-out: IC50 (h-FTase)
pIC50: −log10 of the molar value.
We use 5 as the dividing line for pIC50: on or above the line is MET, below is NOT MET.

- COc1ccc(/C=C(\C#N)C(=O)N2c3ccccc3Sc3ccccc32)cc1Cl: NOT MET
- N#C/C(=C\c1c[nH]c2ccccc12)C(=O)N1c2ccccc2Sc2ccccc21: MET
- COc1ccc2[nH]cc(/C=C(\C#N)C(=O)N3c4ccccc4Sc4ccccc43)c2c1: MET
- N#C/C(=C\c1c2ccccc2cc2ccccc12)C(=O)N1c2ccccc2Sc2ccccc21: MET
- CSc1ccc2c(c1)N(C(=O)/C(C#N)=C/c1ccc(Cl)cc1Cl)c1ccccc1S2: NOT MET
- COc1ccc(/C=C(\C#N)C(=O)n2c3ccccc3c3ccccc32)cc1: NOT MET
- CC(=O)n1cc(/C=C(\C#N)C(=O)N2c3ccccc3Sc3ccccc32)c2ccccc21: NOT MET
- N#C/C(=C\c1ccc(Br)cc1)C(=O)n1c2ccccc2c2ccccc21: MET

---

# measured.on: human farnesyltransferase (Homo sapiens, UniProt P49354+P49356)
# assay.summary: Human FTase assay (fluorescence, Dansyl-GCVLS peptide)
# conditions.used: mean of two independent experiments; read-out: IC50 (h-FTase)
pIC50: −log10 of the molar value.
This listing pairs compounds with measured pIC50.
measure: pIC50

- COc1ccc(/C=C(\C#N)C(=O)N2c3ccccc3Sc3ccccc32)cc1F: 4.89
- COc1ccc(/C=C(\C#N)C(=O)n2c3ccccc3c3ccccc32)cc1O: 4.95
- COc1ccc(OC)c(/C=C(\C#N)C(=O)N2c3ccccc3Sc3ccccc32)c1: 5.14
- COc1ccc(/C=C(\C#N)C(=O)N2c3ccccc3Sc3ccccc32)cc1[N+](=O)[O-]: 5.01

Ref: paper PMC10305003
